study_target: human AT1 receptor (Homo sapiens, UniProt P30556)
Construct: CHO cell stably over-expressing the full length human AT1 receptor
Sequence (P30556 whole entry): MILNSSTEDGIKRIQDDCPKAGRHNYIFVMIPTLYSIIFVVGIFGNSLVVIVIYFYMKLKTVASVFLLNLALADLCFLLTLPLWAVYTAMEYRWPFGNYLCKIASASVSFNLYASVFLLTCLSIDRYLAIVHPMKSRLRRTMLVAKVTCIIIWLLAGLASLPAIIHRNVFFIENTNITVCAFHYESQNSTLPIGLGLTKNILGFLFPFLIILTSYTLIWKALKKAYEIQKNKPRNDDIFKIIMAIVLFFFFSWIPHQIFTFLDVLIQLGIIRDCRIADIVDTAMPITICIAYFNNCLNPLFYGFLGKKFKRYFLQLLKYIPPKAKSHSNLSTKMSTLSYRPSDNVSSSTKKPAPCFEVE
experiment_notes: AT1 functional assay (FLIPR Ca efflux, Angiotensin-II at EC80)
condition_notes: CHO cells over-expressing full length human AT1 receptor; Angiotensin-II as agonist at EC80
Consider the following compounds and their measured pIC50 readings.
# reply with the number alone; pIC50 is -log10 of concentration in mol/L

Some compounds with recorded pIC50:
[
  {
    "entry_smiles": "CCc1cc2c(c(Sc3ccccc3)cc(=O)n2Cc2ccc(-c3ccsc3S(=O)(=O)Nc3noc(C)c3C)cc2)c(CC)n1",
    "pIC50": 6.90
  },
  {
    "entry_smiles": "CCc1nc(C)cc2c1c(CC)nn2Cc1ccc(-c2cc(C)sc2S(=O)(=O)Nc2noc(C)c2C)c(COC)c1",
    "pIC50": 7.76
  },
  {
    "entry_smiles": "CCOCc1cc(Cn2nc(-c3ccc(OC)cc3)c3c(C)nc(CC)cc32)ccc1-c1cc(C)sc1S(=O)(=O)Nc1noc(C)c1C",
    "pIC50": 7.66
  }
]

Reported pIC50 for human AT1 receptor (Homo sapiens, UniProt P30556), given CCc1cc2c(ccc(=O)n2Cc2ccc(-c3cc(C)sc3S(=O)(=O)Nc3noc(C)c3C)c(F)c2)c(CC)n1 ?
7.56

Reported pIC50 for human AT1 receptor (Homo sapiens, UniProt P30556), given CCOc1cc(=O)n(Cc2ccc(-c3cc(C)sc3S(=O)(=O)Nc3noc(C)c3C)c(C)c2)c2cc(CC)nc(CC)c12 ?
7.60

Reported pIC50 for human AT1 receptor (Homo sapiens, UniProt P30556), given CCOCc1cc(Cn2nc(Cn3nc(C)cc3C)c3c(C)nc(C)cc32)ccc1-c1cc(C)sc1S(=O)(=O)Nc1noc(C)c1C ?
7.94

Reported pIC50 for human AT1 receptor (Homo sapiens, UniProt P30556), given CCOCc1cc(Cn2nc(-c3cccs3)c3c(C)nc(CC)cc32)ccc1-c1cc(C)sc1S(=O)(=O)Nc1noc(C)c1C ?
7.60
